Tested on: clinical HIV-1 isolate JEW
Assay: anti-HIV activity (p24 production) in PHA-stimulated PBMC, clinical isolate JEW
Type: cell-based
Conditions: Human immunodeficiency virus 1, PBMC, PHA-stimulated PBMC, isolate JEW, with 5-FU 0.2 μM; mean of three experiments; read-out: EC50 of ddI
MEASUREMENT LABEL: EC50 (nM)
Your answer should be a plain number; it is taken to be in nM.

Query block: Write down EC50 measured for item OC[C@@H]1CC[C@H](n2cnc3c(O)ncnc32)O1
Result block: 170

----------
Assay: in vitro
Conditions: human, pha-stimulated pbmc
MEASUREMENT LABEL: CC50

Query block: Indicate the recorded CC50 value for this compound: O=c1[nH]cc(F)c(=O)[nH]1 [5-FU, 5-fluorouracil]
Result block: ~9 µM

FYI, the data here is from patent US5719132A.
